half-life at 2 µM: recorded values
# TEST_SUMMARY: Half life in human plasma at 2 uM by LC/MS/MS analysis
# Assay type: ADME, cell-free
# answer = value followed by unit

Reference set, count: 3
{"columns": ["COMPOUND", "half-life at 2 µM"],
 "data": [
  ["CCOC(=O)[C@@H](NP(=O)(OC[C@H]1O[C@@](C#N)(c2ccc3c(N)ncnn23)[C@H](O)[C@@H]1O)Oc1ccccc1)C(C)C (stereo partly specified)", "26.4 h"],
  ["CCOC(=O)[C@H](Cc1ccccc1)NP(=O)(OC[C@H]1O[C@@](C#N)(c2ccc3c(N)ncnn23)[C@H](O)[C@@H]1O)Oc1ccccc1 (stereo partly specified)", "26.4 h"],
  ["C[C@H](NP(=O)(OC[C@H]1O[C@@](C#N)(c2ccc3c(N)ncnn23)[C@H](O)[C@@H]1O)Oc1ccccc1)C(=O)OC(C)(C)C (stereo partly specified)", "26.4 h"]
]}

Task item: Look up and report measured half-life at 2 µM for this entry: C[C@H](N[P@](=O)(OC[C@H]1O[C@@](C#N)(c2ccc3c(N)ncnn23)[C@H](O)[C@@H]1O)Oc1ccccc1)C(=O)OCC(C)(C)C
Reply: 11.7 h

Task item: For the compound CC(C)OC(=O)[C@H](C)N[P@@](=O)(OC[C@H]1O[C@@](C#N)(c2ccc3c(N)ncnn23)[C@H](O)[C@@H]1O)Oc1ccccc1 , give its reported half-life at 2 µM.
Reply: 26 h

Task item: Provide one value: measured half-life at 2 µM of CCOC(=O)[C@H](C)NP(=O)(OC[C@H]1O[C@@](C#N)(c2ccc3c(N)ncnn23)[C@H](O)[C@@H]1O)Oc1ccccc1 (stereo partly specified)
Reply: 26.4 h

----------
# TEST_SUMMARY: Inhibition of RNA polymerase 2 in human HeLa cells preincubated for 5 mins with […] as substrate followed by addition of cell extract measured after 1 hr by SDS-PAGE method
OBSERVATION_TYPE: IC50

Task item: Report measured IC50; entry is N#C[C@@]1(c2ccc3c(N)ncnn23)O[C@H](COP(=O)(O)OP(=O)(O)OP(=O)(O)O)[C@@H](O)[C@H]1O
Reply: > 200 µM

----------
# TEST_SUMMARY: Lipophilicity, log D of the compound after 30 mins by HPLC/UV method
# Format: physicochemical
OBSERVATION_TYPE: logD at 0.5 h
Write no unit; give the number alone.

Answered cases to consult:
{"columns": ["COMPOUND", "logD at 0.5 h"],
 "data": [
  ["C[C@H](N[P@](=O)(OC[C@H]1O[C@@](C#N)(c2ccc3c(N)ncnn23)[C@H](O)[C@@H]1O)Oc1ccccc1)C(=O)OCC(C)(C)C", 1.7],
  ["C[C@H](NP(=O)(OC[C@H]1O[C@@](C#N)(c2ccc3c(N)ncnn23)[C@H](O)[C@@H]1O)Oc1ccccc1)C(=O)OC(C)(C)C (stereo partly drawn)", 1.3],
  ["CCOC(=O)[C@H](Cc1ccccc1)NP(=O)(OC[C@H]1O[C@@](C#N)(c2ccc3c(N)ncnn23)[C@H](O)[C@@H]1O)Oc1ccccc1 (stereo partly drawn)", 1.6],
  ["N#C[C@@]1(c2ccc3c(N)ncnn23)O[C@H](CO)[C@@H](O)[C@H]1O [GS-441524]", 0.3],
  ["CC(C)OC(=O)[C@H](C)N[P@@](=O)(OC[C@H]1O[C@@](C#N)(c2ccc3c(N)ncnn23)[C@H](O)[C@@H]1O)Oc1ccccc1", 1.1],
  ["CCC(CC)COC(=O)[C@H](C)N[P@](=O)(OC[C@H]1O[C@@](C#N)(c2ccc3c(N)ncnn23)[C@H](O)[C@@H]1O)Oc1ccccc1 (mixture of isomers)", 2.1]
]}

Task item: Determine from records and report logD at 0.5 h for C[C@H](NP(=O)(OC[C@H]1O[C@@](C#N)(c2ccc3c(N)ncnn23)[C@H](O)[C@@H]1O)Oc1ccccc1)C(=O)OC1CCC1 (stereo partly drawn)
Reply: 1.1

Task item: Provide measured logD at 0.5 h value, entry: CCC(CC)OC(=O)[C@H](C)NP(=O)(OC[C@H]1O[C@@](C#N)(c2ccc3c(N)ncnn23)[C@H](O)[C@@H]1O)Oc1ccccc1 (stereo partly drawn)
Reply: 1.6

----------
# System: HEp-2
# TEST_SUMMARY: Cytotoxicity against human Hep2 cells assessed as reduction in cell viability after 4 to 5 days by Cell-Titer Glo assay
# Type: cell-based
# ASSAY_SETUP: hep-2
OBSERVATION_TYPE: CC50 (µM)
Write the value in µM as a bare number.

Task item: Recall and state the measured CC50 for CCC(CC)COC(=O)[C@H](C)N[P@](=O)(OC[C@H]1O[C@@](C#N)(c2ccc3c(N)ncnn23)[C@H](O)[C@@H]1O)Oc1ccccc1 .
Reply: 6.1

----------
The reader will find reported CC50 at 72 h values listed item by item below.
# TEST_SUMMARY: Cytotoxicity against human HuH7 cells assessed as reduction in cell viability after 3 days by calcein-AM dye based fluorescence assay
# Parameters: species or system Huh-7
# ASSAY_SETUP: Huh-7 cells

{"columns": ["COMPOUND", "CC50 at 72 h"],
 "data": [
  ["C#C[C@@]1(c2ccc3c(N)ncnn23)O[C@H](COP(=O)(N[C@@H](C)C(=O)OCC(CC)CC)Oc2ccccc2)[C@@H](O)[C@H]1O (stereo partly drawn)", "> 44 µM"]
]}

Task item: Fill in CC50 at 72 h for record CC(C)OC(=O)[C@H](C)NP(=O)(OC[C@H]1O[C@@](C#N)(n2ccc(N)nc2=O)[C@H](O)[C@@H]1O)Oc1ccccc1 (stereo partly drawn)
Reply: > 44 µM

Task item: Item N#C[C@@]1(c2ccc3c(N)ncnn23)O[C@H](CO)[C@@H](O)[C@H]1F : provide CC50 at 72 h
Reply: > 44 µM

Task item: Specify CC50 at 72 h for CC(C)OC(=O)[C@H](C)N[P@](=O)(OC[C@H]1O[C@@](C#N)(c2ccc3c(N)ncnn23)[C@](C)(O)[C@@H]1OC(=O)C(C)C)Oc1ccccc1 and stop.
Reply: 51 µM

Task item: Using the record for C[C@@]1(c2ccc3c(N)ncnn23)O[C@H](CO)[C@@H](O)[C@H]1O , state its measured CC50 at 72 h.
Reply: 62 µM

Task item: Read off the recorded CC50 at 72 h for N#C[C@@]1(n2cnc3c(N)ncnc32)O[C@H](CO)[C@@H](O)[C@H]1O
Reply: > 88 µM

Task item: Provide measured CC50 at 72 h value, entry: C#C[C@@]1(c2ccc3c(N)ncnn23)O[C@H](CO)[C@@H](O)[C@H]1O
Reply: > 88 µM

Task item: Tell me measured CC50 at 72 h for N#C[C@@]1(n2ccc(N)nc2=O)O[C@H](CO)[C@@H](O)[C@H]1O please.
Reply: > 44 µM

----------
# TEST_SUMMARY: Cytotoxicity against human Hep2 cells assessed as reduction in cell viability after 4 to 5 days by Cell-Titer Glo assay
# Format: cell-based, HEp-2
# ASSAY_SETUP: HEp-2 cells
Listed here are compounds together with their documented CC50.
Number only, in µM; omit the unit.

Here's what some known entries look like.
{"columns": ["COMPOUND", "UNIT_ANNOTATION", "CC50"],
 "data": [
  ["CC(C)OC(=O)[C@H](C)N[P@](=O)(OC[C@H]1O[C@@](C#N)(c2ccc3c(N)ncnn23)[C@](C)(O)[C@@H]1OC(=O)C(C)C)Oc1ccccc1", "µM", 95],
  ["CCC(CC)COC(=O)[C@H](C)N[P@](=O)(OC[C@H]1O[C@@](C#N)(c2ccc3c(N)ncnn23)[C@H](O)[C@@H]1O)Oc1ccccc1 (mixture of isomers)", "µM", 9.2]
]}

Now look at this one.
Task item: Given Nc1ncnn2c([C@@H]3O[C@H](CO)[C@@H](O)[C@H]3O)ccc12 , respond with its CC50.
Reply: 0.038

----------
# Tested on: Ebolavirus
# TEST_SUMMARY: Antiviral activity against Ebolavirus Kikwit infected in human HeLa cells assessed as reduction in viral glycoprotein levels preincubated with cells for 2 hrs followed by viral infection measured after 48 hrs by immunostaining based assay
# Format: functional, cell-based
# ASSAY_SETUP: hela
OBSERVATION_TYPE: EC50 (nM)
Answer in nM, number only, no unit symbol.

Task item: Quick one: give measured EC50 for CCC(CC)COC(=O)[C@H](C)N[P@](=O)(OC[C@H]1O[C@@](C#N)(c2ccc3c(N)ncnn23)[C@H](O)[C@@H]1O)Oc1ccccc1
Reply: 100

----------
Listed here: items and their measured CC50 at 72 h.
# TEST_SUMMARY: Cytotoxicity against human HuH7 cells assessed as reduction in cell viability after 3 days by calcein-AM dye based fluorescence assay
# Set-up: species or system Huh-7
# ASSAY_SETUP: Huh-7 cells

Consider the reported CC50 at 72 h for these compounds:
{"columns": ["COMPOUND", "CC50 at 72 h"],
 "data": [
  ["CCC(CC)COC(=O)[C@H](C)NP(=O)(OC[C@H]1O[C@@](C#N)(c2ccc3c(N)ncnn23)[C@](C)(O)[C@@H]1O)Oc1ccccc1 (some centres undefined)", "> 44 µM"],
  ["C[C@@]1(O)[C@H](O)[C@@H](CO)O[C@@]1(C#N)c1ccc2c(N)ncnn12", "> 44 µM"],
  ["N#C[C@@]1(c2ccc3c(N)ncnn23)O[C@H](CO)[C@@H](O)[C@H]1O", "> 88 µM"]
]}

Task item: Output CC50 at 72 h of Nc1ncnn2c([C@@H]3O[C@H](CO)[C@@H](O)[C@H]3O)ccc12
Reply: 0.15 µM
